Form field: Response (one value per entry).
Target: T1, muANGPTL7-his (R&D Systems) (mouse, UniProt Q8R1Q3 22-337, limits assumed)
T1 construct: Bought protein; also called mouse ANGPTL7 protein
T1 sequence (looked up): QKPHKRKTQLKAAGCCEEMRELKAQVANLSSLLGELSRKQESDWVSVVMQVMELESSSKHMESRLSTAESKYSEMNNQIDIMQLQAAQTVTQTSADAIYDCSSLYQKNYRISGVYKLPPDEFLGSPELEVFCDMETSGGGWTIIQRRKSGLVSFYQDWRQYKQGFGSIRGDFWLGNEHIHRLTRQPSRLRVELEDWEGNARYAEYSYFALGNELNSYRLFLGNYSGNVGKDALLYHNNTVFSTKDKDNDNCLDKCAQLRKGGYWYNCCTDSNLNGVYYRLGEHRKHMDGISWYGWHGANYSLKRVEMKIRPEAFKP
Assay: BLI Octet HTX; IgG on AHC sensor; muANGPTL7-his at 200 nM; 1:1 fit
I only need the number, in nm, no unit after it.

# binder, Response [nm]
data = [
    ("ATX-P-438 (antibody, human IgG1, kappa, N297A, V domains shown, Full chains (VH + hIgG1-Agly-Fc)) VH: QVQLVESGGGVVQPGRSLRLSCAASGFTFSSYGMHWVRQAPGKGLEWVAIISYDGNNKYYADSVKGRFTISRDNSKNTLYLQMNSLRDEDTAVYYCAKERGYSSSSGYYYYYMDVWGKGTTVTVSS VL: EIVLTQSPGTLSLSPGERATLSCRASQSVSRSYLAWYQQKPGQAPRLLIIGASTRATGIPDRFSGSGSGTDFTLTISRLEPEDFAVYYCQQGQVIPPTFGQGTKVEIKR", 0.01),
    ("ATX-P-435 (antibody, human IgG1, kappa, N297A, V domains shown, Full chains (VH + hIgG1-Agly-Fc)) VH: QLQLQESGPGLVKPSETLSLTCTVSGGSISSSSSYWGWIRQPPGKGLEWIGSIYYSGSTYSNPSLKSRVTISVDTSKNQFSLKLSSVTAADTAVYYCARQYISGTEYFQYWGQGTLVTVSS VL: EIVLTQSPATLSLSPGERATLSCRASQSVSNYLAWYQQKPGQAPRLLIYDASNRATGIPARFSGSGSGTDFTLTISSLEPEDFAVYYCQQRSNWPSFGQGTRLEIKR", 0.01),
    ("ATX-P-448 (antibody, human IgG1, kappa, N297A, V domains shown, Full chains (VH + hIgG1-Agly-Fc)) VH: QVQLVESGGGVVQPGRSLRLSCAASGFPFSSYGMHWVRQAPGKGLEWVAVMSYDGINGYYADSVKGRFTISRDNSKNTLYLQMNSLRAEDTAVYYCARLVYADDAFDIWGQGTTVTVSS VL: EIVLTQSPATLSLSPGERATLSCRASQSVSSYLAWYQQKPGQAPRLLIYDASNRATGIPARFSGSGSGTDFTLTISSLEPEDFAVYYCQQRSNWPLTFGGGTKVEIKR", 0.69),
]

Now for another entry.
Ask: # lookup: Response of ATX-P-424 (antibody, human IgG1, kappa, N297A, V domains shown, Full chains (VH + hIgG1-Agly-Fc)) VH: EVQLVESGGGLVKPGGSLRLSCAASGFTFSSYSMNWVRQAPGKGLEWVSSITSSSYIFYADSLKGRFTISRDNAKNSLFLQMNSLRAEDTAVYYCARDSNWGEAFDIWGQGTMVTVSS VL: DIQMTQSPSSLSASVGDRVTITCRASQGIRNDLGWYQQKPGKAPKRLIYAASSLPSGVPSRFSGSGSGTEFTLTISSLQPEDFAIYYCLQHNSYPWTFGQGTKVEIKR
Result: 0.14
